Cited source for all entries: patent US10988477B2

test.system: GCN2 kinase (Homo sapiens, UniProt Q9P2K8)
Sequence (Q9P2K8 whole entry): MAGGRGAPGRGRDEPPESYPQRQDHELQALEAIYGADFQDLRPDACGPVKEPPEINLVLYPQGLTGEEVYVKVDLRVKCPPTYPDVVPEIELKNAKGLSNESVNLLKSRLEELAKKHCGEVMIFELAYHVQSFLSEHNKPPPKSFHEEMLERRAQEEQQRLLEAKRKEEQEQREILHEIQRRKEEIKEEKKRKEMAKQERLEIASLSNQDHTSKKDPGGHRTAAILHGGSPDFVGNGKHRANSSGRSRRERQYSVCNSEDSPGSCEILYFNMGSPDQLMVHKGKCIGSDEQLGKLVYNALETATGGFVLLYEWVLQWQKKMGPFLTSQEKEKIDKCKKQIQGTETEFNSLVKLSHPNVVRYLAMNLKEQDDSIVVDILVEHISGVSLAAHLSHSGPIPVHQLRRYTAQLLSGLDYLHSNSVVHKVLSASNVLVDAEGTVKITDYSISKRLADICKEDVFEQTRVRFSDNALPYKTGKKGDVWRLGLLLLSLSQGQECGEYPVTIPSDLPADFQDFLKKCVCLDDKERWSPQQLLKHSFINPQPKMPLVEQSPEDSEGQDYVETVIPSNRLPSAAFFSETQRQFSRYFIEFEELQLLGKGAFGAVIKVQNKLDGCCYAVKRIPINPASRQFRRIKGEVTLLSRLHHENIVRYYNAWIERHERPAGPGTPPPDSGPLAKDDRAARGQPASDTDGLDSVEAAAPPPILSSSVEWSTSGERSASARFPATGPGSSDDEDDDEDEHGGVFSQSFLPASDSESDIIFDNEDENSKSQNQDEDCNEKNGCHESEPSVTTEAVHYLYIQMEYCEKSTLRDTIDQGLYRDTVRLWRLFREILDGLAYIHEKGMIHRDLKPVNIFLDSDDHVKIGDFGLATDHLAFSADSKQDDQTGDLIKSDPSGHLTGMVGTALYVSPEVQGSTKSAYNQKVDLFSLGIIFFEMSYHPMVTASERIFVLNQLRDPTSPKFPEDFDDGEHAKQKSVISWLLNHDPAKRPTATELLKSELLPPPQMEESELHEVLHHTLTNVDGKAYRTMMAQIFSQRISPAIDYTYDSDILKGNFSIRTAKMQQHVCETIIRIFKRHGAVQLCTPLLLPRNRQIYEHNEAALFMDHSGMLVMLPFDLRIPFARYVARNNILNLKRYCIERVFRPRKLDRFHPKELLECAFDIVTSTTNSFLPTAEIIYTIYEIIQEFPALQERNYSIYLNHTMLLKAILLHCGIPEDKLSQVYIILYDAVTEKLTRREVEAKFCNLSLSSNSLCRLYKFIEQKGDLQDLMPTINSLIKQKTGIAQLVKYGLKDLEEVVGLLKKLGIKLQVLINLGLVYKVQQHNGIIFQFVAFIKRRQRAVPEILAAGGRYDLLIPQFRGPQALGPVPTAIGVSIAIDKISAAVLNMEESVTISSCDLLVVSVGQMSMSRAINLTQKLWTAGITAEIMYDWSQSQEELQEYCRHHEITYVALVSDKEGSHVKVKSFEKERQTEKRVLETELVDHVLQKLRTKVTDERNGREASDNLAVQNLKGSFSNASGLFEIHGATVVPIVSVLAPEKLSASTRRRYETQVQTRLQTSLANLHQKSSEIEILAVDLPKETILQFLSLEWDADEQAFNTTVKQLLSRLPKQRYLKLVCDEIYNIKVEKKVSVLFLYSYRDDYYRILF
test.summary: GCN2 enzyme inhibition assay (Transcreener ADP2 fluorescence polarization)
Type: biochemical
experimental.conditions: compounds of Formula IV; 280 μM ATP, 4 nM GCN2 kinase
pIC50: −log10 of the molar value.
Reported pIC50 values are given for each entry in this list.

{"molecule": "C[C@@H]1C[C@H](N=S(C)(C)=O)CN(c2ccnc(-c3cnc4cnc(Cl)cn34)n2)C1", "readout.name": "pIC50", "measurement": "6.00 to 8.00"}
{"molecule": "Cc1n[nH]cc1[C@H]1C[C@@H](O)CN(c2ccnc(-c3cnc4cnc(C(F)(F)F)cn34)n2)C1", "readout.name": "pIC50", "measurement": "> 8.00"}
{"molecule": "C[C@@H]1C[C@H](c2cn[nH]c2)CN(c2ccnc(-c3cnc4cnc(C(F)(F)F)cn34)n2)C1", "readout.name": "pIC50", "measurement": "6.00 to 8.00"}
{"molecule": "C[C@H]1[C@@H](c2cn[nH]c2)N(C(=O)c2cnoc2)[C@@H](C)CN1c1ccnc(-c2cnc3cnc(C(F)(F)F)cn23)n1", "readout.name": "pIC50", "measurement": "6.00 to 8.00"}
{"molecule": "C[C@H]1C[C@@H](c2cn[nH]c2)CN(c2ccnc(-c3cnc4cnc(C(F)(F)F)cn34)n2)C1", "readout.name": "pIC50", "measurement": "> 8.00"}

Query: Look up pIC50 for this molecule: C[C@H]1C[C@@H](c2c[nH]nc2F)CN(c2ccnc(-c3cnc4cnc(C(F)(F)F)cn34)n2)C1
Result: > 8.00

Query: Could you do the same for Cc1n[nH]cc1[C@@H]1CN(c2ccnc(-c3cnc4cnc(C(F)(F)F)cn34)n2)C[C@@H](C)O1 , please?
Result: 6.00 to 8.00

----------
Reported Ki values are given for each entry in this list.
test.system: GCN2 kinase (Homo sapiens)
test.summary: GCN2 enzyme inhibition assay (Transcreener ADP2 fluorescence polarization)
Assay type: biochemical
experimental.conditions: compounds of Formula V; 280 μM ATP, 4 nM GCN2 kinase

{"molecule": "FC(F)(F)c1cn2c(-c3nccc(N4CCOC(c5cn[nH]c5)C4)n3)cnc2s1 (stereo not shown) [Compound V-20]", "measurement": "< 10 nM"}
{"molecule": "CP(C)(=O)C1CC(c2cn[nH]c2)CN(c2ccnc(-c3cnc4sc(C(F)(F)F)cn34)n2)C1 (racemic) [Compound V-5]", "measurement": "10 to 100 nM"}

Query: Look up Ki for this molecule: CC1CN(c2ccnc(-c3cnc4sc(C(F)(F)F)cn34)n2)C(C)C(c2cn[nH]c2)N1 (single isomer, unassigned) [Compound V-12]
Result: 100 to 1000 nM

Query: Could you do the same for CC1CC(CS(C)(=N)=O)C(C)N(c2ccnc(-c3cnc4sc(C(F)(F)F)cn34)n2)C1 (stereo not shown) [Compound V-16] , please?
Result: 100 to 1000 nM

Query: Could you do the same for FC(F)(F)c1cn2c(-c3nccc(N4CCO[C@H](c5cn[nH]c5)C4)n3)cnc2s1 (stereo in doubt) , please?
Result: < 10 nM

Query: Could you do the same for CC1CC(CS(C)(=N)=O)C(C)N(c2ccnc(-c3cnc4sc(C(F)(F)F)cn34)n2)C1 (stereo not shown) [Compound V-17] , please?
Result: 10 to 100 nM

Query: Could you do the same for FC(F)(F)c1cn2c(-c3nccc(N4CCO[C@@H](c5cn[nH]c5)C4)n3)cnc2s1 (stereo in doubt) , please?
Result: 10 to 100 nM
